List of Ki values.
- target-or-system: human α1b-adrenoceptor (Homo sapiens, UniProt P35368)
- Construct: expressed in transfected cells
- Sequence (P35368 whole entry): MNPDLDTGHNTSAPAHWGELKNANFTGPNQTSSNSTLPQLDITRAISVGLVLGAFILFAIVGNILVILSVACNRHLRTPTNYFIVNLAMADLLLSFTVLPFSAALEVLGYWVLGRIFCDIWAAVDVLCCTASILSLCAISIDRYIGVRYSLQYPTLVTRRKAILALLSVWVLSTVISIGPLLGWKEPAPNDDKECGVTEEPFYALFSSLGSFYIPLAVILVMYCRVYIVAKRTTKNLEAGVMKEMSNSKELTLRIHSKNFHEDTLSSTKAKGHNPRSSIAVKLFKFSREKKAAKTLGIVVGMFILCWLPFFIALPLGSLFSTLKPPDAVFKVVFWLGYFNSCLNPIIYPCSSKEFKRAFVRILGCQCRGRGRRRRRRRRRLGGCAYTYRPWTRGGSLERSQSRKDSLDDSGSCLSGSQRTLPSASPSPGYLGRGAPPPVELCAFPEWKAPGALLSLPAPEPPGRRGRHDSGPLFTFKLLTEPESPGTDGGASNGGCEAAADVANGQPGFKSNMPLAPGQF
- assay-remarks: [3H]Prazosin binding, cloned human α1b-adrenoceptor in CHO cell membranes
- condition-summary: CHO membranes; read-out: Affinity (Ki) α1b, human cloned receptors
readout-label: Ki (nM)

compound="COc1cc2nc(N3CCN(C(=O)OCc4ccccc4)C4CCCCC43)nc(N)c2cc1OC (racemic) [Example 7]" target_or_system="human α1b-adrenoceptor (Homo sapiens, UniProt P35368)" data_value=0.65
compound="COc1cc2nc(N3CCN(C(=O)c4ccc(C)o4)C4CCCCC43)nc(N)c2cc1OC (racemic) [Example 5]" target_or_system="human α1b-adrenoceptor (Homo sapiens, UniProt P35368)" data_value=0.24
compound="COc1cc2nc(N3CCN(C(=O)c4ccco4)[C@H](C(=O)NC(C)(C)C)C3)nc(N)c2cc1OC [Compound C]" target_or_system="human α1b-adrenoceptor (Homo sapiens, UniProt P35368)" data_value=1.76
compound="COc1cc2nc(N3CCN(C(=O)COc4c(OC)cccc4C(C)C)C4CCCCC43)nc(N)c2cc1OC (racemic) [Example 4]" target_or_system="human α1b-adrenoceptor (Homo sapiens, UniProt P35368)" data_value=0.16

###

- target-or-system: bovine α1a-adrenoceptor (Bos taurus)
- Construct: expressed in transfected cells; host or cells: COS-7 cells (transient), membranes
- Sequence (P18130 1-466): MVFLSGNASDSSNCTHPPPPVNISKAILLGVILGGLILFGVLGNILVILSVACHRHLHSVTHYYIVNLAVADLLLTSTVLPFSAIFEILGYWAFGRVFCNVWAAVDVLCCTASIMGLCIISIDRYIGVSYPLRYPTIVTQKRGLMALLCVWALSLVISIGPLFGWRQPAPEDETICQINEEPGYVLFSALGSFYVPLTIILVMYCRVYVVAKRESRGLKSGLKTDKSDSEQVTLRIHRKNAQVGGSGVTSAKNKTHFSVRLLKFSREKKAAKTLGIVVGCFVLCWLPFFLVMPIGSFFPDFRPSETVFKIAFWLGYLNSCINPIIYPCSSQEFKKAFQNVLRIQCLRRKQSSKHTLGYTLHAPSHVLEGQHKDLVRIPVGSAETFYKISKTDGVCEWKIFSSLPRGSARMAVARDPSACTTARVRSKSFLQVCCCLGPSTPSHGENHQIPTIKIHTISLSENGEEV
- assay-remarks: [3H]Prazosin binding, bovine α1a-adrenoceptor in COS-7 cell membranes
- condition-summary: bovine α1a, COS-7 membranes; read-out: Affinity (Ki) α1a, animal cloned receptors
readout-label: Ki (nM)

molecule="COc1cc2nc(N3CCN(C(=O)COc4c(OC)cccc4C(C)C)CC3)nc(N)c2cc1OC.Cl [Compound A, hydrochloride]" readout_label=Ki unit_label=nM data_value=7.5

###

- target-or-system: rat α1d-adrenoceptor (Rattus norvegicus)
- Sequence (P23944 1-561): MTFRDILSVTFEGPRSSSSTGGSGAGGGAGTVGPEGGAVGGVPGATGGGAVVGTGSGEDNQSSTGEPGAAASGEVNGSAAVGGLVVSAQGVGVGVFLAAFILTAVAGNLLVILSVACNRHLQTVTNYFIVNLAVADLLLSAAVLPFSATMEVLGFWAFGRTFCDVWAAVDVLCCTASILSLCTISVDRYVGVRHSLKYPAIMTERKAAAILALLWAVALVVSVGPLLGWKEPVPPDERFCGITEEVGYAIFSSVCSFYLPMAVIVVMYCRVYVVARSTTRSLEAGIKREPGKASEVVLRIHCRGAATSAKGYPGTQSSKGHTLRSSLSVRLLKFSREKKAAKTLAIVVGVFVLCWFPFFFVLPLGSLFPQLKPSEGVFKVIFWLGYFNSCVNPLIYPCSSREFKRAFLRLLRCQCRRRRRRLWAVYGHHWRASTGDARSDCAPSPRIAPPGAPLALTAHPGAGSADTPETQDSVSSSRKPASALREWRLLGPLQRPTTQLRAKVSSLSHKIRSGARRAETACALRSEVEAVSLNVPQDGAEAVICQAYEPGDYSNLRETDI
pKi: −log10 of the molar value.
readout-label: pKi

molecule="COc1cc2nc(N3CCN(C(=O)COc4c(OC)cccc4C(C)C)CC3)nc(N)c2cc1OC.Cl [Compound A, hydrochloride]" readout_label=pKi data_value=7.99

###

- target-or-system: human α1d-adrenoceptor (Homo sapiens, UniProt P25100)
- Sequence (P25100 1-572): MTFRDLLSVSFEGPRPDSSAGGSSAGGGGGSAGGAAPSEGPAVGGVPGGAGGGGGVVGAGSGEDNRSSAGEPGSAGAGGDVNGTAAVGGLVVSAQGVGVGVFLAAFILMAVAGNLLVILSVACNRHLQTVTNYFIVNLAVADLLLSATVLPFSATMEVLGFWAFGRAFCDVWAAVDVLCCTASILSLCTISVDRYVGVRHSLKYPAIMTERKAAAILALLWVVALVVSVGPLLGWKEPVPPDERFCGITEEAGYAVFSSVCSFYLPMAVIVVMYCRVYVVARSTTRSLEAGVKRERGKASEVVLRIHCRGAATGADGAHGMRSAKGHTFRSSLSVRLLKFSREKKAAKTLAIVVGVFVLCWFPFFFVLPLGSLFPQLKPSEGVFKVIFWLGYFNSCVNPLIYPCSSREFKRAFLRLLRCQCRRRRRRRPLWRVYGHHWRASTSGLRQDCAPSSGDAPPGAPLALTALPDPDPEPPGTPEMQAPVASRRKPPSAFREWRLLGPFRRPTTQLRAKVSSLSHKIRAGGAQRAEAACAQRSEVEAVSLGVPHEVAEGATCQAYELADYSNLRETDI
pKi: −log10 of the molar value. Counter-ions that a name gives are not always drawn.
readout-label: pKi

compound="COc1cc2nc(N3CCN(C(=O)c4ccco4)[C@@H]4CCCC[C@@H]43)nc(N)c2cc1OC [Compound B, hydrochloride]" data_value=8.58

###

- target-or-system: human α1b-adrenoceptor (Homo sapiens)
- Construct: expressed in transfected cells
- assay-remarks: [3H]Prazosin binding, cloned human α1b-adrenoceptor in CHO cell membranes
pKi: −log10 of the molar value. Counter-ions that a name gives are not always drawn.
readout-label: pKi

molecule="COc1cc2nc(N3CCN(C(=O)c4ccco4)[C@@H]4CCCC[C@@H]43)nc(N)c2cc1OC [Compound B, hydrochloride]" data_value=9.77

###

- System: anaesthetised dogs
- assay-remarks: Intracavernous and blood pressure recording in dogs
- condition-summary: 300 μg/kg intracavernous
Where a name gives a salt, the structure may show the parent alone.
Below, each of the molecules is paired with its reported ICP value.
readout-label: ICP (mmHg)

molecule="COc1cc2nc(N3CCN(C(=O)c4ccco4)[C@@H]4CCCC[C@@H]43)nc(N)c2cc1OC [Compound B, hydrochloride]" target_or_system="anaesthetised dogs" data_value=57.3
molecule=COc1cc2nc(N3CCN(C(=O)c4ccco4)CC3)nc(N)c2cc1OC target_or_system="anaesthetised dogs" data_value=37.5
molecule=COc1cc2nc(N3CCN(C(=O)COc4c(OC)cccc4C(C)C)CC3)nc(N)c2cc1OC.Cl target_or_system="anaesthetised dogs" data_value=111.0
molecule=Cc1ccc(N(CC2=NCCN2)c2cccc(O)c2)cc1 target_or_system="anaesthetised dogs" data_value=16.0

###

- target-or-system: bovine α1a-adrenoceptor (Bos taurus, UniProt P18130)
- Construct: expressed in transfected cells; host or cells: COS-7 cells (transient), membranes
- assay-remarks: [3H]Prazosin binding, bovine α1a-adrenoceptor in COS-7 cell membranes
pKi: −log10 of the molar value.
readout-label: pKi

compound_smiles=Cc1ccc(N(CC2=NCCN2)c2cccc(O)c2)cc1 target_or_system="bovine α1a-adrenoceptor (Bos taurus, UniProt P18130)" readout_label=pKi data_value=8.49

###

- target-or-system: human α1a-adrenoceptor (Homo sapiens, UniProt P35348)
- Sequence (P35348 whole entry): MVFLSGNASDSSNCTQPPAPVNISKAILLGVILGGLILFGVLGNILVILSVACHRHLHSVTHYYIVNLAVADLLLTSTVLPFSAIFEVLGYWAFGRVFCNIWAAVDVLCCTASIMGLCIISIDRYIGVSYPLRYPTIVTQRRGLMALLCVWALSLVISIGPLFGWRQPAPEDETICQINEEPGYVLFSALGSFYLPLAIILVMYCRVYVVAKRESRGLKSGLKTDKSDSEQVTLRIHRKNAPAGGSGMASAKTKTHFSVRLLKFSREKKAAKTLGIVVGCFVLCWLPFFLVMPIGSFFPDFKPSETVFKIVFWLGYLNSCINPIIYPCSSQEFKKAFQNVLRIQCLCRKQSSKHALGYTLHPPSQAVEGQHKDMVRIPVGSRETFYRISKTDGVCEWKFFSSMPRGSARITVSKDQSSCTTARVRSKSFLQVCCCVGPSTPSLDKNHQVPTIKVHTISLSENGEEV
- assay-remarks: biochemical
pKi: −log10 of the molar value. Counter-ions that a name gives are not always drawn.
Let's look at some compounds and their measured pKi.
readout-label: pKi

compound="COc1cc2nc(N3CCN(C(=O)c4ccco4)[C@H](C(=O)NC(C)(C)C)C3)nc(N)c2cc1OC [Compound C]" data_value=7.03
compound="COc1cc2nc(N3CCN(C(=O)c4ccco4)[C@@H]4CCCC[C@@H]43)nc(N)c2cc1OC [Compound B, hydrochloride]" data_value=8.03
